All figures here come from ChEMBL document CHEMBL1201862.

# System: KM-20L2
# EXPERIMENTAL PROTOCOL: NCI tumour cell line growth inhibition, 48 h
Activity calls are given as the source filed them. Rule as the data show it: active = GI50 up to about 1.1 µM and inactive = higher.
Possible outcomes: T for active, F for inactive

>>> category_label("C[C@H]1C/C=C/[C@H]2[C@@H]3O[C@]3(C)[C@@H](C)[C@H]3[C@H](Cc4ccccc4)NC(=O)[C@]32OC(=O)O/C=C/[C@@](C)(O)C1=O")
"T"
>>> category_label("CCOc1ccc(/N=C(/NC(=O)c2ccccc2)SC)cc1")
"F"
>>> category_label("CCOC(=O)CC1(C(=O)OCC)c2[nH]c3ccccc3c2CCN1Cc1ccccc1 (stereo not given)")
"F"
>>> category_label("COc1ccc(-c2nnc(-c3nsc4ccccc34)o2)cc1")
"F"
>>> category_label("CCCCCCC(/C=N/O)C(C)(O)CCC (stereo not given)")
"F"
